system: Vero cells; experiment: Cytotoxicity / cytostasis test on the Vero line, % inhibition of proliferation (crystal violet); format: cell-based, monkey; conditions: 40 μm [sic], 72 hours
Listed compounds paired with reported % inhibition of proliferation

These solved cases illustrate the format of a correct answer.
Cc1c[nH]c2c(=O)[nH]c3ccccc3c12; 45%
Cc1cn(C)c(C(=O)N(C(=O)NC2CCCCC2)C2CCCCC2)c1-c1ccccc1[N+](=O)[O-]; 25%
CCOC(=O)c1[nH]cc(C)c1-c1ccccc1NC(=O)CNC(=O)OCc1ccccc1; 4%

--- query ---
Documented % inhibition of proliferation of COC(=O)c1[nH]cc(C)c1-c1cccc([N+](=O)[O-])c1 : 38%

----------
tested on: KB cells; test: Cytotoxicity / cytostasis test on the KB line, % inhibition of proliferation (crystal violet); assay type: cell-based, human; settings: KB cells, 80 μm [sic], 72 hours
Label label 1 when % inhibition of proliferation is at or above 40%; anything below gets label 0.

query: Could you tell me if the measured % inhibition of proliferation of Cc1c[nH]c2c(=O)[nH]c3ccccc3c12 reaches 40% or more?
result: label 1

----------
system: Vero cells; experiment: Cytotoxicity / cytostasis test on the Vero line, % inhibition of proliferation (crystal violet); assay type: cell-based, monkey; conditions: 100 μm [sic], 72 hours
Listed compounds paired with reported % inhibition of proliferation

These solved cases illustrate the format of a correct answer.
Cc1c[nH]c2c(=O)[nH]c3ccccc3c12 [(4)]; 69-84%
CCOC(=O)c1[nH]cc(C)c1-c1ccccc1NC(=O)CNC(=O)OCc1ccccc1 [(6)]; 78%

Documented % inhibition of proliferation of CCOC(=O)c1[nH]cc(C)c1-c1ccccc1 [(1)] : 63%

Documented % inhibition of proliferation of COC(=O)c1[nH]cc(C)c1-c1cccc([N+](=O)[O-])c1 [(2)] : 77%

Documented % inhibition of proliferation of CCCCc1c(C)c(-c2ccccc2N(C)C(=O)OCc2ccccc2)c(CCC2OCCO2)n1C [(22)] : 54%

Documented % inhibition of proliferation of CCCCc1c(C)c(-c2ccccc2NC)c(CCC2OCCO2)n1C [(23)] : 80%

Documented % inhibition of proliferation of Cc1cn(C)c(C(=O)N(C(=O)NC2CCCCC2)C2CCCCC2)c1-c1ccccc1[N+](=O)[O-] [(10)] : 100%

----------
Listed molecules paired with reported % inhibition of proliferation
system: Vero cells; assay: Cytotoxicity / cytostasis test on the Vero line, % inhibition of proliferation (crystal violet); assay type: cell-based, monkey; settings: 40 μm [sic], 72 hours
Please don't drop the unit; write it after the number.

These solved cases illustrate the format of a correct answer.
CCCCc1c(C)c(-c2ccccc2NC)c(CCC2OCCO2)n1C [(23)]; 25%
CCOC(=O)c1[nH]cc(C)c1-c1ccccc1 [(1)]; 20%

--- query ---
Record CCCCc1c(C)c(-c2ccccc2N(C)C(=O)OCc2ccccc2)c(CCC2OCCO2)n1C [(22)] ; system Vero cells; % inhibition of proliferation = 0%

----------
system: KB cells; test: Cytotoxicity / cytostasis test on the KB line, % inhibition of proliferation (crystal violet); format: cell-based, human; settings: KB cells, 80 μm [sic], 72 hours
Listed molecules paired with reported % inhibition of proliferation
Please give a number only; it is taken to be in %.

These solved cases illustrate the format of a correct answer.
CCOC(=O)c1[nH]cc(C)c1-c1ccccc1; 35
COC(=O)c1[nH]cc(C)c1-c1cccc([N+](=O)[O-])c1; 50

Documented % inhibition of proliferation of Cc1cn(C)c(C(=O)N(C(=O)NC2CCCCC2)C2CCCCC2)c1-c1ccccc1[N+](=O)[O-] : 27

Documented % inhibition of proliferation of CCCCc1c(C)c(-c2ccccc2N(C)C(=O)OCc2ccccc2)c(CCC2OCCO2)n1C : 44

Documented % inhibition of proliferation of CCCCc1c(C)c(-c2ccccc2NC)c(CCC2OCCO2)n1C : 94

Documented % inhibition of proliferation of CCOC(=O)c1[nH]cc(C)c1-c1ccccc1NC(=O)CNC(=O)OCc1ccccc1 : 52
